Molecular target: mGluR5 (Rattus norvegicus, UniProt P31424)
Construct: they provide a native system that endogenously expresses high levels of mGluR5; endogenous in cells
Sequence (P31424 21-1203): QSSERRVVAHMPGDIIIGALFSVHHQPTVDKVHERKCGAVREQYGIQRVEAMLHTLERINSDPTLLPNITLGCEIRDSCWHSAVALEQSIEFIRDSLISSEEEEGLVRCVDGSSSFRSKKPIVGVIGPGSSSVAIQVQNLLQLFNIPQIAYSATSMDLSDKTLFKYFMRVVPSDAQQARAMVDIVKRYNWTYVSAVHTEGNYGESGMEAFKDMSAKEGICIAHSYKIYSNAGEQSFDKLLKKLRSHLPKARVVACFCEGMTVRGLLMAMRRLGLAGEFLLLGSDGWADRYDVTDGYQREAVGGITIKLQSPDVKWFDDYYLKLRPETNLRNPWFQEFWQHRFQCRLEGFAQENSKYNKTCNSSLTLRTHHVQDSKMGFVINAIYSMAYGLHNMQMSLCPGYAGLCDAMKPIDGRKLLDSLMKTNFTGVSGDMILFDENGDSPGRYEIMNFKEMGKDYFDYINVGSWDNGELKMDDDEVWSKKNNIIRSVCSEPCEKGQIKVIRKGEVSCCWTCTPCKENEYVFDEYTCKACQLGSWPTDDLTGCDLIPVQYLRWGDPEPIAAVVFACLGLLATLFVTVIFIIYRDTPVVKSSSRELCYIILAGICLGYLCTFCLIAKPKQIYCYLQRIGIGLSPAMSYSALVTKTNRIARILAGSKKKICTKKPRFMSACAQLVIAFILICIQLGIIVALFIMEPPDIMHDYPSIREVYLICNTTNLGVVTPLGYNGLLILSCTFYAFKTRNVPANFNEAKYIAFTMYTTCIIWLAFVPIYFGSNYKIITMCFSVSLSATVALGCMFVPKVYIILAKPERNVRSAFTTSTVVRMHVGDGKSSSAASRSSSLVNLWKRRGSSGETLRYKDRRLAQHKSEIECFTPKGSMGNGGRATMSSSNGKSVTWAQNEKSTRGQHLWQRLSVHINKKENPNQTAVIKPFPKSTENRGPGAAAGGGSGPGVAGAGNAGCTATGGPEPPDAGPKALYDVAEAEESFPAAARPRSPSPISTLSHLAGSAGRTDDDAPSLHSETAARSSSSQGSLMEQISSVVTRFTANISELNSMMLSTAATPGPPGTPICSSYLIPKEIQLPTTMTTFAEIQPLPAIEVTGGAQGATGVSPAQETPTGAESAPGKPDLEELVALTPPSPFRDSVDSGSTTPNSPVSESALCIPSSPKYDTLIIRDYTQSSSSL
Assay: Calcium fluorescence assay (FDSS) in rat cortical astrocytes
Details: extrapolated from Schild regression; read-out: Ki from Schild analysis (x-intercept)
Protocol: Metabotropic glutamate receptor 5induced phosphorylation of extracellular signal-regulated kinase in astrocytes depends on transactivation of the epidermal growth factor receptor. J Neurosci 21:9619-28). In brief, neocortices from 2-4 day old Sprague Dawley rat pups were dissected and dissociated in DMEM by trituration with 1 ml pipette tips. […]
Measurement Label: Ki (nM)

>  <Compound>
Cc1ccc(C#Cc2ccccc2)nc1 [5MPEP, 5-methyl-2-phenylethynyl-pyridine, reference compound]

>  <Target Or Test System>
mGluR5 (Rattus norvegicus, UniProt P31424)

>  <Obs Value>
560

$$$$

====

molecular target: mGluR5 (Rattus norvegicus); construct: they provide a native system that endogenously expresses high levels of mGluR5; endogenous in cells; assay: Calcium fluorescence assay (FDSS) in rat cortical astrocytes; conditions: nearly maximal glutamate; read-out: IC50 at inhibiting mGluR5 receptor responses
pIC50: −log10 of the molar value.
Measurement Label: pIC50

>  <Molecule>
COc1cccc(C#Cc2ccc(C)cn2)c1 [M-5MPEP]

>  <Obs Value>
~6.52

$$$$
